Collected recombinant UMI read abundance (log10) values appear next to each entry.
Assay: recombinant UMI read abundance after kanamycin selection (control-corrected) (log10(CPM+1)); higher = more efficient recombination; extreme values may be limits of the assay; sequences stand for … in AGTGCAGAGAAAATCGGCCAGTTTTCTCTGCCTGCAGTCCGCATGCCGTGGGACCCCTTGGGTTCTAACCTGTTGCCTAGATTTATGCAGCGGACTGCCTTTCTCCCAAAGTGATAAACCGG…AGGTTGGTTTCACT; site = the 11-nt donor
Reply: number alone, nothing else.

Example sequences with recorded recombinant UMI read abundance (log10):
GCTCGCGCATGGACCGGTTTTCCCGGTAATCCGTATTTGGT (site GCTCGCGCTAC) | 0.984
TCGGACCCATGGACCGGTTTTCCCGGTAATCCGTATTTGGG (site TCGGACCCTCC) | 0.036
TTTGTTCCATGGACCGGTTTTCCCGGTAATCCGTATTTGGT (site GTTGTTCCTAC) | 0.0225
CGGTCGACATGGACCGGTTTTCCCGGTAATCCGTATTTGGG (site CTGTCGACTCC) | 0.0407
CAAGGCACATGGACCGGTTTTCCCGGTAATCCGTATTTGGG (site CAAGACACTCC) | 0.00686
AAGCCTTCATGGACCGGTTTTCCCGGTAATCCGTATTTGGT (site GAGCCTTCTAC) | 0.134
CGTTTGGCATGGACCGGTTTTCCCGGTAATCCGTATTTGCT (site CCTTTGGCTAG) | 0
GTTGAGACATGGACCGGTTTTCCCGGTAATCCGTATTTGAC (site GTTGAGACTGT) | 2.94

The record that follows has no recombinant UMI read abundance (log10) shown yet.
Respond only with recombinant UMI read abundance (log10) recorded for TGCTCCCCATGGACCGGTTTTCCCGGTAATCCGTATTTGTA (site TGGTCCCCTTA)
0.00608

###

Assay: recombinant barcode read abundance after kanamycin selection (control-corrected) (log10(CPM+1)); higher = more efficient recombination; sequences stand for … in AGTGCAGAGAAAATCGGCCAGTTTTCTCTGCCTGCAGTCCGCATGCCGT…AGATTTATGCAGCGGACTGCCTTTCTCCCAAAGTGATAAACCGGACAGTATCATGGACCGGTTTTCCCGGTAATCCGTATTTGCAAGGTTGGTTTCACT; site = the 11-nt target
The entries below are paired with their reported recombinant barcode read abundance (log10).

Example cases with answers are listed next.
ATAAGCCCTTGGGTTCTAACCTGTTGCCT (site AGAAGCCCTAG) | 0.166
AGCCTGCCTTGGGTTCTAACCTGTTGCCT (site AGCCTGCCTAG) | 0.389
CGATCATCTTGGGTTCTAACCTGTTGCCT (site CGCTCATCTAG) | 0.0503
TCCCAGTCTTGGGTTCTAACCTGTTGCAT (site TCCCAGTCTAC) | 0.104
GGGTACCCTTGGGTTCTAACCTGTTGCCT (site GAGTACCCTAG) | 0.584
TCTAAGCCTTGGGTTCTAACCTGTTGCAT (site TCTAAGCCTAT) | 0.531
ACGAAGCCTTGGGTTCTAACCTGTTGCCT (site ACGAAGCCTAG) | 1.35
GAGGGCCCTTGGGTTCTAACCTGTTGCTG (site GAGGGCCCTCT) | 1.56
TCCAAGGCTTGGGTTCTAACCTGTTGCCT (site TCTAAGGCTAG) | 1.48
ATTGGGGCTTGGGTTCTAACCTGTTGCAG (site ATTAGGGCTCG) | 0.266

Return reported recombinant barcode read abundance (log10). Input sequence: ATGGTACCTTGGGTTCTAACCTGTTGCTA (site GATAACGCTAG)
0.247

For ACGTGGCCTTGGGTTCTAACCTGTTGCCA (site ACGTGGCCTTG) , write its recombinant barcode read abundance (log10).
0.0442

Identify measured recombinant barcode read abundance (log10) corresponding to ATCACGCCTTGGGTTCTAACCTGTTGCCT (site ATCACGCCTAG)
0.544

State its recombinant barcode read abundance (log10): CTCCAACCTTGGGTTCTAACCTGTTGCGG (site CTCCAACCTCC)
2.14

Return reported recombinant barcode read abundance (log10). Input sequence: TCCAACCCTTGGGTTCTAACCTGTTGCCA (site TCCAACCCTTG)
0.715
